assaySummary: Pharmacokinetic profile in rats
Assay type: in vivo
assaySetup: male, Sprague-Dawley, blood, iv; rat, i.v. 1 mg/kg
readoutLabel: clearance (mL/min/kg)

INSERT INTO results (compound, resultunits, recordedresult) VALUES
  ('CO[C@@H]1C[C@H](C[C@@H](C)[C@@H]2CC[C@H](C)/C=C(\C)[C@@H](O)[C@@H](OC)C(=O)[C@H](C)C[C@H](C)/C=C/C=C/C=C(\C)[C@@H](NS(C)(=O)=O)C[C@@H]3CC[C@@H](C)[C@@](O)(O3)C(=O)C(=O)N3CCCC[C@H]3C(=O)O2)CC[C@H]1O [Compound 2]', 'mL/min/kg', 13);

* * *

Parameter 'readout' = Kd; parameter 'system' = FKBP52 (Homo sapiens).
Sequence (Q02790 whole entry): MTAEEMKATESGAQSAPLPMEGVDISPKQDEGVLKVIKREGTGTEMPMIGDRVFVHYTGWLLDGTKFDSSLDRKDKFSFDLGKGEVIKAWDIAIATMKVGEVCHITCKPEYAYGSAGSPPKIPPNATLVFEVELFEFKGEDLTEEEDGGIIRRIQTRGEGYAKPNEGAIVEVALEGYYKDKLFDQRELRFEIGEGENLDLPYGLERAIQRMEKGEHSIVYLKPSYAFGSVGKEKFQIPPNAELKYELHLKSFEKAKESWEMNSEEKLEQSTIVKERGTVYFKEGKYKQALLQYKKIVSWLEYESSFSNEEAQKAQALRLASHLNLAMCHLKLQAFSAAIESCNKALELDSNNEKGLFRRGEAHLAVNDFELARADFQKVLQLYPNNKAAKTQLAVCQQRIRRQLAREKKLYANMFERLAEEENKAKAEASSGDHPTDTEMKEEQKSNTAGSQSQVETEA
readoutLabel: Kd (nM)

INSERT INTO assay_data (molecule, resultunits, recordedresult) VALUES
  ('CO[C@@H]1C[C@H](C[C@@H](C)[C@@H]2CC[C@H](C)/C=C(\C)[C@@H](O)[C@@H](OC)C(=O)[C@H](C)C[C@H](C)/C=C/C=C/C=C(\C)C(N(C)S(C)(=O)=O)C[C@@H]3CC[C@@H](C)[C@@](O)(O3)C(=O)C(=O)N3CCCC[C@H]3C(=O)O2)CC[C@H]1O (single isomer, unassigned)', 'nM', 1380),
  ('CO[C@@H]1C[C@H](C[C@@H](C)[C@@H]2CC[C@H](C)/C=C(\C)[C@@H](O)[C@@H](OC)C(=O)[C@H](C)C[C@H](C)/C=C/C=C/C=C(\C)[C@@H](NS(C)(=O)=O)C[C@@H]3CC[C@@H](C)[C@@](O)(O3)C(=O)C(=O)N3CCCC[C@H]3C(=O)O2)CC[C@H]1OCCO', 'nM', 80),
  ('CO[C@H]1C[C@@H]2CC[C@@H](C)[C@@](O)(O2)C(=O)C(=O)N2CCCC[C@H]2C(=O)O[C@H]([C@H](C)C[C@@H]2CC[C@@H](OCCO)[C@H](OC)C2)CC(=O)[C@H](C)/C=C(\C)[C@@H](O)[C@@H](OC)C(=O)[C@H](C)C[C@H](C)/C=C/C=C/C=C/1C [RAD001, everolimus, reference compound]', 'nM', 1770),
  ('CCS(=O)(=O)N[C@@H]1C[C@@H]2CC[C@@H](C)[C@@](O)(O2)C(=O)C(=O)N2CCCC[C@H]2C(=O)O[C@H]([C@H](C)C[C@@H]2CC[C@@H](O)[C@H](OC)C2)CC[C@H](C)/C=C(\C)[C@@H](O)[C@@H](OC)C(=O)[C@H](C)C[C@H](C)/C=C/C=C/C=C/1C', 'nM', 256);

* * *

assaySummary: Pharmacokinetic profile in rats
Assay type: in vivo
assaySetup: male, Sprague-Dawley, blood, oral; rat, p.o. 3 mg/kg and i.v. 1 mg/kg, solution formulation
readoutLabel: bioavailability (%)

INSERT INTO assay_data (testsmiles, resultunits, recordedresult) VALUES
  ('CO[C@@H]1C[C@H](C[C@@H](C)[C@@H]2CC[C@H](C)/C=C(\C)[C@@H](O)[C@@H](OC)C(=O)[C@H](C)C[C@H](C)/C=C/C=C/C=C(\C)[C@@H](NS(C)(=O)=O)C[C@@H]3CC[C@@H](C)[C@@](O)(O3)C(=O)C(=O)N3CCCC[C@H]3C(=O)O2)CC[C@H]1O', '%', 16);

* * *

Overview of recorded pKd for various compounds
studyTarget: FKBP51 (Homo sapiens)
pKd: −log10 of the molar value.
readoutLabel: pKd

INSERT INTO measurements (compound, readoutlabel, recordedresult) VALUES
  ('CO[C@H]1C[C@@H]2CC[C@@H](C)[C@@](O)(O2)C(=O)C(=O)N2CCCC[C@H]2C(=O)O[C@H]([C@H](C)C[C@@H]2CC[C@@H](OCCO)[C@H](OC)C2)CC(=O)[C@H](C)/C=C(\C)[C@@H](O)[C@@H](OC)C(=O)[C@H](C)C[C@H](C)/C=C/C=C/C=C/1C [RAD001, everolimus, reference compound]', 'pKd', 6.09),
  ('CCS(=O)(=O)N[C@@H]1C[C@@H]2CC[C@@H](C)[C@@](O)(O2)C(=O)C(=O)N2CCCC[C@H]2C(=O)O[C@H]([C@H](C)C[C@@H]2CC[C@@H](O)[C@H](OC)C2)CC[C@H](C)/C=C(\C)[C@@H](O)[C@@H](OC)C(=O)[C@H](C)C[C@H](C)/C=C/C=C/C=C/1C', 'pKd', 6.50),
  ('CO[C@@H]1C[C@H](C[C@@H](C)[C@@H]2CC[C@H](C)/C=C(\C)[C@@H](O)[C@@H](OC)C(=O)[C@H](C)C[C@H](C)/C=C/C=C/C=C(\C)[C@H](NS(=O)(=O)CCCCl)C[C@@H]3CC[C@@H](C)[C@@](O)(O3)C(=O)C(=O)N3CCCC[C@H]3C(=O)O2)CC[C@H]1O', 'pKd', 6.24);

* * *

studyTarget: FKBP51 (Homo sapiens)
Sequence (Q13451 1-457): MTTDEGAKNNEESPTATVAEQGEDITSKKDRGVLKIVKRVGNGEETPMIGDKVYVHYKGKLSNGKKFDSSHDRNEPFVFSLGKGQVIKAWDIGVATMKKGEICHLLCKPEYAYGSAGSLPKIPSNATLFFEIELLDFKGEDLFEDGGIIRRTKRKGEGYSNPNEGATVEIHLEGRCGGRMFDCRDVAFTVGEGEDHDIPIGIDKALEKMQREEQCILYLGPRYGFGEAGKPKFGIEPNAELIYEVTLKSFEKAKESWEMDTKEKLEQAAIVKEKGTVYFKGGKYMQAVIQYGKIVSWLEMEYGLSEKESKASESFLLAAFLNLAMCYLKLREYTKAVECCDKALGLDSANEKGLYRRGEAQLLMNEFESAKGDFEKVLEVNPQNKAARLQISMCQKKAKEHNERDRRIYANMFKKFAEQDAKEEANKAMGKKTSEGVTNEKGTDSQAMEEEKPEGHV
pKd: −log10 of the molar value.
readoutLabel: pKd

INSERT INTO results (compound, recordedresult) VALUES
  ('CO[C@@H]1C[C@H](C[C@@H](C)[C@@H]2CC[C@H](C)/C=C(\C)[C@@H](O)[C@@H](OC)C(=O)[C@H](C)C[C@H](C)/C=C/C=C/C=C(\C)C(N(C)S(C)(=O)=O)C[C@@H]3CC[C@@H](C)[C@@](O)(O3)C(=O)C(=O)N3CCCC[C@H]3C(=O)O2)CC[C@H]1O (single isomer, unassigned)', 5.91),
  ('CO[C@@H]1C[C@H](C[C@@H](C)[C@@H]2CC[C@H](C)/C=C(\C)[C@@H](O)[C@@H](OC)C(=O)[C@H](C)C[C@H](C)/C=C/C=C/C=C(\C)[C@@H](NS(C)(=O)=O)C[C@@H]3CC[C@@H](C)[C@@](O)(O3)C(=O)C(=O)N3CCCC[C@H]3C(=O)O2)CC[C@H]1OCCO', 7.33);

* * *

Entries below carry reported Kd on FKBP12 (Homo sapiens, UniProt P62942).
Sequence (P62942 whole entry): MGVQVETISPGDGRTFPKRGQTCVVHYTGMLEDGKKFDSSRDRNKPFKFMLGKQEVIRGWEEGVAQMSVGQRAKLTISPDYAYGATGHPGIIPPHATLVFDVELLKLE
readoutLabel: Kd (nM)

INSERT INTO results (compound, recordedresult) VALUES
  ('CO[C@@H]1C[C@H](C[C@@H](C)[C@@H]2CC[C@H](C)/C=C(\C)[C@@H](O)[C@@H](OC)C(=O)[C@H](C)C[C@H](C)/C=C/C=C/C=C(\C)C(N(C)S(C)(=O)=O)C[C@@H]3CC[C@@H](C)[C@@](O)(O3)C(=O)C(=O)N3CCCC[C@H]3C(=O)O2)CC[C@H]1O (single isomer, unassigned)', 6.5),
  ('CO[C@@H]1C[C@H](C[C@@H](C)[C@@H]2CC[C@H](C)/C=C(\C)[C@@H](O)[C@@H](OC)C(=O)[C@H](C)C[C@H](C)/C=C/C=C/C=C(\C)[C@@H](NS(C)(=O)=O)C[C@@H]3CC[C@@H](C)[C@@](O)(O3)C(=O)C(=O)N3CCCC[C@H]3C(=O)O2)CC[C@H]1OP(C)(C)=O', 0.54),
  ('CCS(=O)(=O)N[C@@H]1C[C@@H]2CC[C@@H](C)[C@@](O)(O2)C(=O)C(=O)N2CCCC[C@H]2C(=O)O[C@H]([C@H](C)C[C@@H]2CC[C@@H](O)[C@H](OC)C2)CC[C@H](C)/C=C(\C)[C@@H](O)[C@@H](OC)C(=O)[C@H](C)C[C@H](C)/C=C/C=C/C=C/1C', 0.55),
  ('CCS(=O)(=O)N[C@H]1C[C@@H]2CC[C@@H](C)[C@@](O)(O2)C(=O)C(=O)N2CCCC[C@H]2C(=O)O[C@H]([C@H](C)C[C@@H]2CC[C@@H](O)[C@H](OC)C2)CC[C@H](C)/C=C(\C)[C@@H](O)[C@@H](OC)C(=O)[C@H](C)C[C@H](C)/C=C/C=C/C=C/1C', 0.2),
  ('CO[C@@H]1C[C@H](C[C@@H](C)[C@@H]2CC[C@H](C)/C=C(\C)[C@@H](O)[C@@H](OC)C(=O)[C@H](C)C[C@H](C)/C=C/C=C/C=C(\C)[C@@H](NS(C)(=O)=O)C[C@@H]3CC[C@@H](C)[C@@](O)(O3)C(=O)C(=O)N3CCCC[C@H]3C(=O)O2)CC[C@H]1OCCO', 0.83),
  ('CO[C@@H]1C[C@H](C[C@@H](C)[C@@H]2CC[C@H](C)/C=C(\C)[C@@H](O)[C@@H](OC)C(=O)[C@H](C)C[C@H](C)/C=C/C=C/C=C(\C)[C@H](NS(=O)(=O)CCCCl)C[C@@H]3CC[C@@H](C)[C@@](O)(O3)C(=O)C(=O)N3CCCC[C@H]3C(=O)O2)CC[C@H]1O', 0.73),
  ('CO[C@@H]1C[C@H](C[C@@H](C)[C@@H]2CC[C@H](C)/C=C(\C)[C@@H](O)[C@@H](OC)C(=O)[C@H](C)C[C@H](C)/C=C/C=C/C=C(\C)[C@@H](NS(=O)(=O)C3CC3)C[C@@H]3CC[C@@H](C)[C@@](O)(O3)C(=O)C(=O)N3CCCC[C@H]3C(=O)O2)CC[C@H]1O', 0.29);
